- TARGET DESC: human collagen type I (human) (UniProt P02452)
- Sequence (P02452 162-1218 limits assumed, chain 1 of 2): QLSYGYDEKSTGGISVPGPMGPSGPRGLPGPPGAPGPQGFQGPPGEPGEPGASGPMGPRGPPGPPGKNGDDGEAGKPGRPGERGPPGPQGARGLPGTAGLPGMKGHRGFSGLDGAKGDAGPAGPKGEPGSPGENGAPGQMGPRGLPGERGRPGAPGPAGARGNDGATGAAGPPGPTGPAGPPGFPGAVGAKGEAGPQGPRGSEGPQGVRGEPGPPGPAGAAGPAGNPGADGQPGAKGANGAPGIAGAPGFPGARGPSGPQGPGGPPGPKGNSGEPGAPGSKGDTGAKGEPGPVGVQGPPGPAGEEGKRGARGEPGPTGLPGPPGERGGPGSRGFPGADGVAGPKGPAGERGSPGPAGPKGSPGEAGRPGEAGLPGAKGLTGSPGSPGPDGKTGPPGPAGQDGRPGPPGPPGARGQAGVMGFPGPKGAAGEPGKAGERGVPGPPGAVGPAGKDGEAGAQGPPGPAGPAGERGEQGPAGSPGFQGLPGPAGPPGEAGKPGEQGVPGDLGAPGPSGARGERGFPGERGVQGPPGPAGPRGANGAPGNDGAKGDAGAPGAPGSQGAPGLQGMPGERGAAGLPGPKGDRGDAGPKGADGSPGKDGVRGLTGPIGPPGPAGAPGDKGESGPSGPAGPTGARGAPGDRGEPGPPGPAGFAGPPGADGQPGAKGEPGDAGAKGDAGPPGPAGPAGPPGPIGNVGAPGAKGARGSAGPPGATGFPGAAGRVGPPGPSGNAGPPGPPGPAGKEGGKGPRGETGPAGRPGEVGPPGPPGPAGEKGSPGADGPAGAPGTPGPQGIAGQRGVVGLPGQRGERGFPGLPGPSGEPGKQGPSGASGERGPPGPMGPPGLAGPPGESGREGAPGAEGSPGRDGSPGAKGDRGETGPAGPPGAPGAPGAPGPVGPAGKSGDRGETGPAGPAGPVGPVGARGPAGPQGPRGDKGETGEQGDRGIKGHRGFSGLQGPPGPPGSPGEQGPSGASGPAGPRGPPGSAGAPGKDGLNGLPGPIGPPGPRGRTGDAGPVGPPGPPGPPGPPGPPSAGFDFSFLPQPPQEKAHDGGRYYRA
- Sequence (P08123 80-1119 limits assumed, chain 2 of 2, further chain): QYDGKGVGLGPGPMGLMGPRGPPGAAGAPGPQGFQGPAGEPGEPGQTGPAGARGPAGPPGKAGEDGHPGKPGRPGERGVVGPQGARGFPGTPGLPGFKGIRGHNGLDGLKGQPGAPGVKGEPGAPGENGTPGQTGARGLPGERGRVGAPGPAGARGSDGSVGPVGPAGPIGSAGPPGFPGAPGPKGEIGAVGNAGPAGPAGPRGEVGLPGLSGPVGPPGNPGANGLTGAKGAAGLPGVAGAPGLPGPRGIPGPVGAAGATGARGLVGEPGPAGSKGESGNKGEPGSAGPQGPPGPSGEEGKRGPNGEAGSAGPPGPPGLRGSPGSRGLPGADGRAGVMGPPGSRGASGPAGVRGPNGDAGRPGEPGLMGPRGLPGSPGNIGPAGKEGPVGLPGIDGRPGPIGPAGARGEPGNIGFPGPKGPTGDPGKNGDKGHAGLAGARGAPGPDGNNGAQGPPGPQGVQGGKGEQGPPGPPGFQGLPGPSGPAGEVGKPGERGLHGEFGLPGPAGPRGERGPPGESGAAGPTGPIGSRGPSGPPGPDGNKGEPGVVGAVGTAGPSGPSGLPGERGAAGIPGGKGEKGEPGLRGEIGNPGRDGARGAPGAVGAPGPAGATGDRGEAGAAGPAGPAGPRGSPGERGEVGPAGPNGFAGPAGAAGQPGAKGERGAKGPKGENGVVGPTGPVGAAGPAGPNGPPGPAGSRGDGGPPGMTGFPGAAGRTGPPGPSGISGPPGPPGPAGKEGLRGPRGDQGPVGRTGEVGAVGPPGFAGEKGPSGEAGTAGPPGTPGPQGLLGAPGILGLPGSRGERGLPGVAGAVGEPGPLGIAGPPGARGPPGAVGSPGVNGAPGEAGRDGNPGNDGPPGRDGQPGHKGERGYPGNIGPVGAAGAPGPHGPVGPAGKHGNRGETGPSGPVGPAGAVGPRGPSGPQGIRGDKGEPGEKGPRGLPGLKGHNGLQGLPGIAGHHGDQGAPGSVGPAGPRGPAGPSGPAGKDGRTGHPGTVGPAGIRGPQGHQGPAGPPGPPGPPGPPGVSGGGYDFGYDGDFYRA
- MEASUREMENT PROTOCOL: dried collagen assay, 5 uM peptide
Bridge positions count the residues as written; N and C are the ends. Square brackets hold non-standard residues; d marks the D form. Ends that are not written are not given here. NMeA = CN[C@@H](C)C(=O)O

>  <BINDER>
GQWTCSGDEYTWHC[dN]YE (disulfide 5-14 (inferred); not fully specified (C-terminus)) [SEQ ID NO: 176]

>  <UNIT ANNOTATION>
%

>  <% Collagen Binding, Dried Human>
2

$$$$
>  <BINDER>
DWTCS[dA]DEYTWHCNYE (disulfide 4-13 (inferred); not fully specified (C-terminus); printed as D W T C S a D E Y T W H C N Y E) [SEQ ID NO: 179]

>  <UNIT ANNOTATION>
%

>  <% Collagen Binding, Dried Human>
81

$$$$
>  <BINDER>
G[dQ]WTCSGDEYTWHCNYE (disulfide 5-14 (inferred)) [SEQ ID NO: 164]

>  <UNIT ANNOTATION>
%

>  <% Collagen Binding, Dried Human>
46

$$$$
>  <BINDER>
GQWTCSGD[dE]YTWHCNYE (disulfide 5-14 (inferred); not fully specified (C-terminus)) [SEQ ID NO: 170]

>  <UNIT ANNOTATION>
%

>  <% Collagen Binding, Dried Human>
49

$$$$
>  <BINDER>
GQWTC[dS]GDEYTWHCNYE (disulfide 5-14 (inferred)) [SEQ ID NO: 168]

>  <UNIT ANNOTATION>
%

>  <% Collagen Binding, Dried Human>
3

$$$$
>  <BINDER>
YHACYQAGC[dW]IW (disulfide 4-9 (inferred)) [SEQ ID NO: 160]

>  <UNIT ANNOTATION>
%

>  <% Collagen Binding, Dried Human>
20

$$$$
>  <BINDER>
YHACYQ[NMeA]GCWIW (disulfide 4-9 (inferred)) [SEQ ID NO: 105]

>  <UNIT ANNOTATION>
%

>  <% Collagen Binding, Dried Human>
9

$$$$
